tested target: PD-1/PD-L1 interaction (PD-1-Ig / PD-L1-His) (Homo sapiens, UniProt Q9NZQ7)
Construct: hPDL1(18-239)-TVMV-His; TVMV protease site linker (C); made in house; host or cells: HEK293T
Sequence (Q9NZQ7 with tags, fused parts or gaps): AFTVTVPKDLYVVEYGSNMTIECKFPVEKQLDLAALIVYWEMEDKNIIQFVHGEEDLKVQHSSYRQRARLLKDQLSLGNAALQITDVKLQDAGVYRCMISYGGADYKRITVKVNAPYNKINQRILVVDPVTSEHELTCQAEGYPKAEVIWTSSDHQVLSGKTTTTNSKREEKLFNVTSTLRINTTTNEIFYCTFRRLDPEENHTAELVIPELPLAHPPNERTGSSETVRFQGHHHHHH
experimental protocol: PD-1/PD-L1 Homogenous Time-Resolved Fluorescence (HTRF) binding assay
assay setup: IC50 range class; PD-L1-His 10 nM, PD-1-Ig 20 nM; read-out: Range or IC50
Description: The ability of the compounds of formula (I) to bind to PD-L1 was investigated using a PD-1/PD-L1 Homogenous Time-Resolved Fluorescence (HTRF) binding assay. Homogenous Time-Resolved Fluorescence (HTRF) Binding Assay. The interaction of PD-1 and PD-L1 can be assessed using soluble, purified preparations of the extracellular domains of the two proteins. […]

compound	IC50
N#Cc1cncc(COc2cc(OCc3cccc(-c4cccc(COc5cc(OCc6cncc(C#N)c6)c(C(=O)N6CCS(=O)(=O)CC6)cc5Cl)c4Cl)c3Cl)c(Cl)cc2C(=O)N2CCS(=O)(=O)CC2)c1	0.04 to 20 nM
Cc1c(COc2cc(OCc3cncc(C#N)c3)c(CN(CCC(C)C)C(CCO)C(=O)O)cc2Cl)cccc1-c1cccc(COc2cc(OCc3cncc(C#N)c3)c(CN(CCC(C)C)C(CCO)C(=O)O)cc2Cl)c1C (stereo not drawn)	0.04 to 20 nM
Cc1c(COc2cc(OCc3cncc(C#N)c3)c(CN3CCOC[C@@H]3C(=O)O)cc2Cl)cccc1-c1cccc(COc2cc(OCc3cncc(C#N)c3)c(CN3CCOC[C@@H]3C(=O)O)cc2Cl)c1C	0.04 to 20 nM

###

tested target: PD-1/PD-L1 interaction (PD-1-Ig / PD-L1-His) (Homo sapiens)
Construct: hPDL1(18-239)-TVMV-His; TVMV protease site linker (C); made in house; host or cells: HEK293T
experimental protocol: PD-1/PD-L1 Homogenous Time-Resolved Fluorescence (HTRF) binding assay
assay setup: IC50 range class; PD-L1-His 10 nM, PD-1-Ig 20 nM; read-out: Range or IC50

compound	IC50
Cc1c(COc2cc(OCc3cncc(C#N)c3)c(CN[C@@H](CC#N)C(=O)O)cc2Cl)cccc1-c1cccc(COc2cc(OCc3cncc(C#N)c3)c(CN[C@@H](CC#N)C(=O)O)cc2Cl)c1C	0.04 to 20 nM
Cc1c(COc2cc(OCc3ccc(-n4cccn4)nc3)c(CNC(C)(CO)CO)cc2Cl)cccc1-c1cccc(COc2cc(OCc3ccc(-n4cccn4)nc3)c(CNC(C)(CO)CO)cc2Cl)c1C	0.04 to 20 nM
Cc1c(OCCCNCCc2ccc(N)cc2)cccc1-c1cccc(OCCCN2CC[C@@H](O)C2)c1C	20.1 to 90 nM
Cc1c(OCCCN2CC[C@@H](O)C2)cccc1-c1cccc(OCC2CCCN(C)C2)c1C (stereo partly drawn)	0.04 to 20 nM
Cc1c(COc2cc(OCc3cc(F)cc(F)c3)c(CNC(C)(CO)CO)cc2Cl)cccc1-c1cccc(COc2cc(OCc3cc(F)cc(F)c3)c(CNC(C)(CO)CO)cc2Cl)c1C	0.04 to 20 nM
Cc1c(OCCCN2CC[C@@H](O)C2)cccc1-c1cccc(OCCCN2CCC[C@@H](C(=O)O)C2)c1C	90.1 to 1000 nM

###

tested target: PD-1/PD-L1 interaction (PD-1-Ig / PD-L1-His) (Homo sapiens)
Construct: hPDL1(18-239)-TVMV-His; TVMV protease site linker (C); made in house; host or cells: HEK293T
experimental protocol: PD-1/PD-L1 Homogenous Time-Resolved Fluorescence (HTRF) binding assay
assay setup: IC50 range class; PD-L1-His 10 nM, PD-1-Ig 20 nM; read-out: Range or IC50
The reader will find reported IC50 values listed item by item below.
assay readout: IC50

compound string	assay readout	result value
Cc1c(COc2cc(O)c(CN[C@@](C)(CO)C(=O)O)cc2Cl)cccc1-c1cccc(COc2cc(OCc3cncc(C#N)c3)c(CN[C@@](C)(CO)C(=O)O)cc2Cl)c1C	IC50	0.04 to 20 nM
Cc1c(COc2cc(OCc3cncc(C#N)c3)c(CN3C[C@@H](C)C[C@H]3C(=O)O)cc2Cl)cccc1-c1cccc(COc2cc(OCc3cncc(C#N)c3)c(CN3C[C@@H](C)C[C@H]3C(=O)O)cc2Cl)c1C	IC50	0.04 to 20 nM
Cc1c(COc2cc(OCc3cncc(C(N)=O)c3)c(CN[C@@H](CCO)C(=O)O)cc2Cl)cccc1-c1cccc(COc2cc(OCc3cncc(C(N)=O)c3)c(CN[C@@H](CCO)C(=O)O)cc2Cl)c1C	IC50	0.04 to 20 nM
